- TARGET UNDER TEST: T1, SFACP, ACP of the FAS from Synechocystis
- T1 chain: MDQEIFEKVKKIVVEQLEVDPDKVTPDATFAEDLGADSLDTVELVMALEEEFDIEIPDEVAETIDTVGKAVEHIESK
Item-by-item account of kcat/Km

PROTEIN	kcat/Km [µM⁻¹ min⁻¹]
APPT, Sfp-like phosphopantetheinyl transferase (PPTase) from Anabaena sp. PCC7120 (protein) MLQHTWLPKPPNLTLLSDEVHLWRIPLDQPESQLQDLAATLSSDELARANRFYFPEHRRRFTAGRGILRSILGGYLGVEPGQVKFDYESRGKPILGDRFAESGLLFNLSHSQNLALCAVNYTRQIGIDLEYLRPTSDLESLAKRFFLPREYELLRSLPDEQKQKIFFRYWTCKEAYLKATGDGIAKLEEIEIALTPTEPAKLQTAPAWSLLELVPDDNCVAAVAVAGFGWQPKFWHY	0.6
MPPT, Sfp-like phosphopantetheinyl transferase (PPTase) from Microcystis aeruginosa NIES843 (protein) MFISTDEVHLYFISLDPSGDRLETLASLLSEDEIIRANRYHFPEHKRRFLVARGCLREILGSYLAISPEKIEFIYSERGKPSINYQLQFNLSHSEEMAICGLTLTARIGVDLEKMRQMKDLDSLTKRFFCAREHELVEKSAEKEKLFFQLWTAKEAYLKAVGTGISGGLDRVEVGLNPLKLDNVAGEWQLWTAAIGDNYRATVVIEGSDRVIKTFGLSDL	0.4
SPPT, Sfp-like phosphopantetheinyl transferase (PPTase) from Synechocystis sp. PCC6803 (protein) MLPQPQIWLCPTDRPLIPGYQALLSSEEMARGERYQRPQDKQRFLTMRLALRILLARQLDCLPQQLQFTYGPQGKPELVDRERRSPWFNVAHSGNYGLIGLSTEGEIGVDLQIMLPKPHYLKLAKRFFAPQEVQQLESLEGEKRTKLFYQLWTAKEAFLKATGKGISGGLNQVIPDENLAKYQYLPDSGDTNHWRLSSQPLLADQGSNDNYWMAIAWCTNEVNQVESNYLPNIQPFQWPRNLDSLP	0.39
Sfp, phosphopantetheinyl transferase from Bacillus subtilis (protein) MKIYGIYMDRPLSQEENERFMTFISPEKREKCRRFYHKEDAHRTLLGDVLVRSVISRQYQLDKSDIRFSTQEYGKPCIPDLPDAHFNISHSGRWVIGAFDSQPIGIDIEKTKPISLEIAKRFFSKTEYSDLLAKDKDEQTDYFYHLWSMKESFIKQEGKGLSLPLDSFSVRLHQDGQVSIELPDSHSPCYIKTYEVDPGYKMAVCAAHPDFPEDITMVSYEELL	0.9
